- Test system: c-Abl (mouse)
- TEST PROTOCOL: phosphorylation enrichment, bacterial display (enrichment ratio); higher = better substrate or ligand; peptides without Tyr show the background;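 further: 11-residue human phosphosite peptides and single-mutation variants displayed on the E. coli surface, counted by deep sequencing, each peptide's frequency after selection divided by its frequency in the unselected input library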;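 further: frequency after pTyr selection over input frequency; kinase dosed for 20-30% of maximal phosphorylation in three min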
Everything with phosphorylation enrichment lower than 0.6 is Criterion not met; everything else, including exactly 0.6, is Criterion met.

Worked cases, answers included:
[
  {
    "CONSTRUCT SEQUENCE": "AAALAYGLDKS [HSPA9_Y230]",
    "ASSAY SYSTEM": "c-Abl (mouse)",
    "ASSIGNED CATEGORY": "Criterion not met"
  },
  {
    "CONSTRUCT SEQUENCE": "REAMEYLESKQ [BTK_Y511_C506R]",
    "ASSAY SYSTEM": "c-Abl (mouse)",
    "ASSIGNED CATEGORY": "Criterion met"
  },
  {
    "CONSTRUCT SEQUENCE": "TDLAYYLVREG [ASL_Y376_K380E]",
    "ASSAY SYSTEM": "c-Abl (mouse)",
    "ASSIGNED CATEGORY": "Criterion not met"
  },
  {
    "CONSTRUCT SEQUENCE": "REGAKYVSHCA [ASS1_Y113_G117C]",
    "ASSAY SYSTEM": "c-Abl (mouse)",
    "ASSIGNED CATEGORY": "Criterion met"
  },
  {
    "CONSTRUCT SEQUENCE": "LRRFIYRPPDR [OTOF_Y1231]",
    "ASSAY SYSTEM": "c-Abl (mouse)",
    "ASSIGNED CATEGORY": "Criterion not met"
  }
]

Incoming: I'd appreciate it if you could say whether TSNQEYLFLSM [FGFR1_Y766_D768Y_YF] has phosphorylation enrichment at least equal to 0.6.
Outgoing: Criterion met

Incoming: I'd appreciate it if you could say whether TCFDKYTGSTF [FN1_Y101_N104S_YF] has phosphorylation enrichment at least equal to 0.6.
Outgoing: Criterion not met

Incoming: I'd appreciate it if you could say whether SEDANYMRVSC [TTC3_Y1288_K1289M] has phosphorylation enrichment at least equal to 0.6.
Outgoing: Criterion met

Incoming: I'd appreciate it if you could say whether PNAYIYVVQLP [L1CAM_Y420_A415P] has phosphorylation enrichment at least equal to 0.6.
Outgoing: Criterion met

Incoming: I'd appreciate it if you could say whether SSQTVYQRVEG [TFR2_Y23] has phosphorylation enrichment at least equal to 0.6.
Outgoing: Criterion not met

Incoming: I'd appreciate it if you could say whether GGGCGYNRSSG [FUS_Y232_G230C] has phosphorylation enrichment at least equal to 0.6.
Outgoing: Criterion met

Incoming: I'd appreciate it if you could say whether PLRPDYQEPSR [DDR2_Y481] has phosphorylation enrichment at least equal to 0.6.
Outgoing: Criterion met

###

- Tested on: c-Src
- TEST PROTOCOL: phosphorylation enrichment, bacterial display (enrichment ratio); higher = better substrate or ligand; peptides without Tyr show the background
Everything with phosphorylation enrichment lower than 0.5 is false (0); everything else, including exactly 0.5, is true (1).

Worked cases, answers included:
[
  {
    "CONSTRUCT SEQUENCE": "TDHLRYFDSNK [ARAP1_Y359]",
    "ASSIGNED CATEGORY": "false (0)"
  },
  {
    "CONSTRUCT SEQUENCE": "CLLHCYFSQIH [MCM3AP_Y873_R878H]",
    "ASSIGNED CATEGORY": "false (0)"
  }
]

Incoming: I'd appreciate it if you could say whether RLTEGYTGPFK [ZNF862_Y181_I178T] has phosphorylation enrichment at least equal to 0.5.
Outgoing: false (0)

Incoming: I'd appreciate it if you could say whether FDDIAYIQKTL [PIK3CA_Y1021_R1023Q] has phosphorylation enrichment at least equal to 0.5.
Outgoing: false (0)

Incoming: I'd appreciate it if you could say whether KDDEKYLDVIR [MTM1_Y260] has phosphorylation enrichment at least equal to 0.5.
Outgoing: false (0)

Incoming: I'd appreciate it if you could say whether GGGCGYNRSSG [FUS_Y232_G230C] has phosphorylation enrichment at least equal to 0.5.
Outgoing: false (0)
